TESTED_ON: Androgen Receptor (AR) (Homo sapiens, UniProt P10275, T878A)
Construct: cell based immuno-fluorescence assay using the LNCaP prostate epithelial cell line; endogenous in cells; host or cells: LNCaP clone FGC (ATCC CRL-1740)
Sequence (P10275 whole entry T878A): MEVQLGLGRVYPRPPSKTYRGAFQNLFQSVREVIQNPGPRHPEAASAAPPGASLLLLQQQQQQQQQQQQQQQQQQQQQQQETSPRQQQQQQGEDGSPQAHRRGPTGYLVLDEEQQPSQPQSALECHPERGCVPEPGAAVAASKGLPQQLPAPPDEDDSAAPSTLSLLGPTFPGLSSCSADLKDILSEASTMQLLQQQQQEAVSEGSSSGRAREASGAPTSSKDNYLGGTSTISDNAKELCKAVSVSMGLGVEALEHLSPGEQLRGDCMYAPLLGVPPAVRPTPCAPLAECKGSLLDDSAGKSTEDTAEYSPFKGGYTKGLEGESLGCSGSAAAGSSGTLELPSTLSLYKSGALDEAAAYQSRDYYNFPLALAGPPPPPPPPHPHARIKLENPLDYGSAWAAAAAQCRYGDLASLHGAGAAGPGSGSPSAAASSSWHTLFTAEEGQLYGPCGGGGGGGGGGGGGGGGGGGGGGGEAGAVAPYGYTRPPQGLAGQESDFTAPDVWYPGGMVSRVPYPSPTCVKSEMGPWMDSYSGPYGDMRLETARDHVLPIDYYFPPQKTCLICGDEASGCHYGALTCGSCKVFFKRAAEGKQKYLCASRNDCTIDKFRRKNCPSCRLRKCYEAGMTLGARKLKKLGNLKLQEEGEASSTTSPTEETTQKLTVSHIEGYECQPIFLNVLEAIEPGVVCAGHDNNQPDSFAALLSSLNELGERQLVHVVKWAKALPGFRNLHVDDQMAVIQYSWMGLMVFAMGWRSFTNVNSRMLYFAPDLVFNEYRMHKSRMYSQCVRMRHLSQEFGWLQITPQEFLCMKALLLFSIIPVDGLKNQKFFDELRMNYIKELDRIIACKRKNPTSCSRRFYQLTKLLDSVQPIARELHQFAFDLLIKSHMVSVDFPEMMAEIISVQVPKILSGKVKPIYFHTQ
MEASUREMENT_PROTOCOL: LNCaP Androgen Receptor Down-regulation Cell Assay (immunofluorescence end point)
Format: cell-based
EXPERIMENTAL_PARAMETERS: LNCaP prostate carcinoma cells, compound incubation 20-22 hours, 50% reduction of the AR signal; read-out: Androgen Receptor Down-regulation Assay (a) IC50/μM
Quick reference: DC50 of the listed items.
Expressed in µM, but write only the number.

# annotated cases, reported DC50 shown
COMPOUND	MEASUREMENT_TYPE	RECORDED_MEASUREMENT
FC(F)(F)c1nnc2ccc(N3CCC(c4noc(-c5cccc(Cl)c5)n4)CC3)nn12 [Example 299]	DC50	0.84
O=S(=O)(c1ccc2ccccc2c1)N1CCN(c2ccc3nnc(C(F)(F)F)n3n2)CC1 [Example 394]	DC50	5.6
O=C(NCCN1CCCC1)c1ccc(OC2CCN(c3ccc4nnc(C(F)(F)F)n4n3)CC2)cc1 [Example 413]	DC50	1.9
Fc1ccc(CN2CCN(c3ccc4nnc(C(F)(F)F)n4n3)CC2)c(F)c1 [Example 382]	DC50	1.8
O=C(c1cccc(OC2CCN(c3ccc4nnc(C(F)(F)F)n4n3)CC2)c1)N1CCOCC1 [Example 693]	DC50	2.3
FC(F)(F)c1nnc2ccc(N3CCN(Cc4cccc5cc[nH]c45)CC3)nn12 [Example 63]	DC50	1.5

Problem: Look up DC50 for this compound: FC(F)(F)c1nnc2ccc(N3CCN(Cc4cccnc4)CC3)nn12 [Example 81]
Result: 7.2

Problem: Look up DC50 for this compound: Fc1ccc2[nH]cc(CN3CCN(c4ccc5nnc(C(F)(F)F)n5c4)CC3)c2c1 [Example 808]
Result: 1

Problem: Look up DC50 for this compound: Cc1cc2nnc(C(F)(F)F)n2nc1N1CCN(Cc2ccc(C#N)cc2)CC1 [Example 13]
Result: 8.4

Problem: Look up DC50 for this compound: OC1(c2cccc(Cl)c2)CCN(c2ccc3nnc(C(F)(F)F)n3n2)CC1 [Example 313]
Result: 1.8
